# TEST_SYSTEM: UniProtKB Q9UQB9
# Sequence (Q9UQB9 whole entry, looked up): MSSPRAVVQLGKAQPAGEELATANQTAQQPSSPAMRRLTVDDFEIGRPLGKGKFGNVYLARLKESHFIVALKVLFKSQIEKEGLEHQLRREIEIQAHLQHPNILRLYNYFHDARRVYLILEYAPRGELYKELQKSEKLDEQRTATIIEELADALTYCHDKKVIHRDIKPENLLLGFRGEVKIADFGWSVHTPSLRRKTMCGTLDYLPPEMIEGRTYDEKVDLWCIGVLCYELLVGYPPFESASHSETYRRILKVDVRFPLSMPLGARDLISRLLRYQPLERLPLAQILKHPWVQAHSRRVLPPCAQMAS
# ASSAY_NAME: radiometric filter-binding kinase assay, Kinase HotSpot
# MEASUREMENT_PARAMETERS: compound 0.5 µM; ATP 10 µM
EXPERIMENTAL_READOUT: residual activity (%)

• COc1cccc(-c2cc(=O)c3ccccc3o2)c1N = 95.3
• N#Cc1c(NC(=O)c2cccc3ccccc23)sc2c1CCCC2 = 95
• O=C(c1ccccc1)c1ccc(N2CCOCC2)cc1O = 102
• CCCCc1c(-c2ccc(O)cc2)[nH]c2nccnc12 = 44.9
• COc1cc2c(cc1OC)-c1[nH]nc(Nc3cccc(F)c3)c1C2 = 94.5
• Cn1cc(/C=C2\C(=O)Nc3ccc(S(N)(=O)=O)cc32)c2ccccc21 = 37.1
• c1ccc(-c2cnc(Nc3ccc(OCCN4CCCC4)cc3)s2)cc1 = 94.9
• O=C(O)c1ccc2c3c1cccc3c(=O)n1c3ccccc3nc21 = 88
• CCc1nc(-c2ccc(OC)cc2)[nH]c1-c1ccncc1 = 97.4
• O=c1[nH]c2ccccc2n1C1CCN(Cc2ccc(-c3nc4cc5[nH]cnc5cc4nc3-c3ccccc3)cc2)CC1 = 96
• N#CCCc1ccc2c(c1)-c1[nH]c3ccc([N+](=O)[O-])cc3c1CC(=O)N2 = 83.6
• N#C/C(=C1/Nc2ccccc2S1)c1ccnc(NCCc2cccnc2)n1 = 96
• Nc1ncnc2c1cnn2-c1ccccc1 = 98.2
• O=c1c(-c2ccc(F)cc2)c(-c2ccncc2)[nH]n1-c1ccc(Cl)cc1 = 100
• Cc1cc(Nc2nc(-c3ccccc3)nc3ccccc23)n[nH]1 = 51.8
• O=C1NC(=O)c2cc(Nc3ccc(F)cc3)c(Nc3ccc(F)cc3)cc21 = 90.8
• O=S(=O)(NCCNC/C=C/c1ccc(Br)cc1)c1cccc2cnccc12 = 89
• O=c1cc(N2CCOCC2)oc2c(-c3ccccc3)cccc12 = 97
• COc1cc2ncnc(Nc3ccc(O)c(Br)c3)c2cc1OC = 83.7
• FC(F)(F)c1ccc(/C=C/c2nc(COc3ccc(CCCCn4ccnn4)cc3)co2)cc1 = 97.1
• O=c1c2ccccc2[nH]c(=S)n1CCN1CCC(=C(c2ccc(F)cc2)c2ccc(F)cc2)CC1 = 99.4
• O=C1NC(=O)c2c1c1c3ccccc3[nH]c1c1[nH]c3cc(Br)ccc3c21 = 51.9
• CCOc1cc2ncnc(Nc3cccc(Br)c3)c2cc1OCC = 83.7
• N/C(=N\N=C/c1ccc(-c2cccc([N+](=O)[O-])c2)o1)N[N+](=O)[O-] = 90.5
• COc1cc2c(N3CCN(C(=O)Nc4ccc(OC(C)C)cc4)CC3)ncnc2cc1OCCCN1CCCCC1 = 97

---

# TEST_SYSTEM: MAP3K2 (human) (UniProt Q9Y2U5)
# Sequence (Q9Y2U5 whole entry, looked up): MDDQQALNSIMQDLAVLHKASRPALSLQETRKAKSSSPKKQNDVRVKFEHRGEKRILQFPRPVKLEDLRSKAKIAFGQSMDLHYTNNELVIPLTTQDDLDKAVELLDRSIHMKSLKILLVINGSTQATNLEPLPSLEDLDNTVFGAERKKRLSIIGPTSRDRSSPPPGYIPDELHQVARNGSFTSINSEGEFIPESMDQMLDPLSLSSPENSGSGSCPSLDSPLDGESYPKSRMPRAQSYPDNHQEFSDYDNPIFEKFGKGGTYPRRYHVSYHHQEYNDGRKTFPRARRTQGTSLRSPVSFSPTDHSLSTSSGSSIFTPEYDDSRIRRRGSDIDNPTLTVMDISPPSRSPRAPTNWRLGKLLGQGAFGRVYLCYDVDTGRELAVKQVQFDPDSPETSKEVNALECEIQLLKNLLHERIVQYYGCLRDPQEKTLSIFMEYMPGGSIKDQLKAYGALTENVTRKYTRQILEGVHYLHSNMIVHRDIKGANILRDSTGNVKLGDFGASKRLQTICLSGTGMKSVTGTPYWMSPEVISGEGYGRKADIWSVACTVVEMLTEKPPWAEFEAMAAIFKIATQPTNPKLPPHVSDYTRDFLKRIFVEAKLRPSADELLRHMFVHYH
# ASSAY_NAME: radiometric filter-binding kinase assay, Kinase HotSpot
# MEASUREMENT_PARAMETERS: compound 0.5 µM; ATP 10 µM
EXPERIMENTAL_READOUT: residual activity (%)

* O=C1NC(=O)c2c1c1c3ccccc3[nH]c1c1[nH]c3cc(Br)ccc3c21 | 100
* c1ccc(-c2cnc(Nc3ccc(OCCN4CCCC4)cc3)s2)cc1 | 104
* O=S(=O)(NCCNC/C=C/c1ccc(Br)cc1)c1cccc2cnccc12 | 91.5
* FC(F)(F)c1ccc(/C=C/c2nc(COc3ccc(CCCCn4ccnn4)cc3)co2)cc1 | 102
* O=c1c(-c2ccc(F)cc2)c(-c2ccncc2)[nH]n1-c1ccc(Cl)cc1 | 98.9

The measured values listed here are drawn from the kinase profiling compilation of Christmann-Franck et al. (2016).
